# Tested on: PDC 899932-113-R3-J6 complex spheroid viability;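 also: spheroids exposed to agents for seven days before readout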
# assay comment: Anticancer human tumor 899932-113-R3-J6-PDC patient-derived melanoma cell line growth inhibition [RAS]; active = viability on the fitted dose curve at most 10% of control; inactive = the rest
# conditions: second compound 0.01 µM; first compound 3.16 µM
Outcomes: active, inactive

compound	tgt	assigned class
NC1c2ccccc2OC12CCN(c1cnc3c(N4CCCc5ncccc54)n[nH]c3n1)CC2 (centres undefined) + C=CC(=O)N1CCN(c2nc(OCC3CCCN3C)nc3c(F)c(-c4nc(N)cc(C)c4C(F)(F)F)c(Cl)cc23)C(C)C1	PDC 899932-113-R3-J6 complex spheroid viability	inactive
Cc1nc(N2CCC3(CC2)COC(C)C3N)c(CO)nc1Sc1ccnc(N)c1Cl (centres undefined) + C=CC(=O)N1CCN(c2nc(OCC3CCCN3C)nc3c(F)c(-c4nc(N)cc(C)c4C(F)(F)F)c(Cl)cc23)C(C)C1	PDC 899932-113-R3-J6 complex spheroid viability	inactive
CCC(CC)c1cc(NC2CCC(N)C2)n2nccc2n1 (centres undefined) + C=CC(=O)N1CCN(c2nc(OCC3CCCN3C)nc3c(F)c(-c4nc(N)cc(C)c4C(F)(F)F)c(Cl)cc23)C(C)C1	PDC 899932-113-R3-J6 complex spheroid viability	active
C[C@@H](NC(=O)c1ncnc(N)c1Cl)c1ncc(C(=O)Nc2cc(C(F)(F)F)c(Cl)cn2)s1 + C=CC(=O)N1CCN(c2nc(OCC3CCCN3C)nc3c(F)c(-c4nc(N)cc(C)c4C(F)(F)F)c(Cl)cc23)C(C)C1	PDC 899932-113-R3-J6 complex spheroid viability	inactive
